Consider the following binders; for each one, report its expected percent binding.
- target: T1, HCV Core1-169 (hepatitis C virus (HCV-1), UniProt P26664 1-169)
- T1 sequence: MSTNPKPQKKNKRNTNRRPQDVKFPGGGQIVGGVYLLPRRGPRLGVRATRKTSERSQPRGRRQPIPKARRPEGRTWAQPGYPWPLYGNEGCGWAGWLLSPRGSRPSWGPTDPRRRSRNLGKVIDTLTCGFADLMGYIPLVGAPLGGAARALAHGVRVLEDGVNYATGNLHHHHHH
- method notes: SPR sandwich, capture mAb C11-3
Give bare numbers, in %.

HCV 208A-293 (antibody, V domains shown) VH: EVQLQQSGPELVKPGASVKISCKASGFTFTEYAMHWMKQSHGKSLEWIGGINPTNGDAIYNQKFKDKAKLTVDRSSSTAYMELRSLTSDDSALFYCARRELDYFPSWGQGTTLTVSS VL: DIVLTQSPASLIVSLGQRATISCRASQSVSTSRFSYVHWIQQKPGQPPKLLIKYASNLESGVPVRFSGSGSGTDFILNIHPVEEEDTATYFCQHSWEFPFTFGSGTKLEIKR
17.9
HCV 208A-133 (antibody, V domains shown) VH: QLQQSGPVLVGPGASVMISCKTSGYTFTENAMHWVEQSHGKSLEWIGGVNPNNGDTIFNQKFKGKATLTVDKSSSTAFMEFRSLTSEESTVYYCVRRELDFFDYWGQGTSVTVSS VL: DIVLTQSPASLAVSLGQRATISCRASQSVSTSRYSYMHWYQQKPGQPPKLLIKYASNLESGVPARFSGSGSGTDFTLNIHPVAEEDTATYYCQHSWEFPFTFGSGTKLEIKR
9.8

Batch of 2 binders: report expected percent binding for each.
1. HCV 208A-1064 (antibody, V domains shown) VH: EVQLQQSGPELVKPGASVKISCKTSGYTFTEYAMHWMKQSHGKSLEWIGGINPTNGDTIYNQKFKDKAKLTVDRSSSTAYMELRSLTSDDSALFYCARRELDYFASWGQGTTLTVSS VL: DIVLTQSPASLIVSLGQTATISCRASQSVSTSRFSYLHWIQQKPGQPPKLLIKYASNLESGVPVRFSGSGSGTDFTLNIHPVEEEDTATYFCQHSWEFPFTFGSGTKLKIKR
2. HCV 208B-547 (antibody, V domains shown) VH: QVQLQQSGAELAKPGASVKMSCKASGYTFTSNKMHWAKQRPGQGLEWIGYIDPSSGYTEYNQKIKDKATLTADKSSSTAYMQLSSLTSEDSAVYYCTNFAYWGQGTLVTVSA VL: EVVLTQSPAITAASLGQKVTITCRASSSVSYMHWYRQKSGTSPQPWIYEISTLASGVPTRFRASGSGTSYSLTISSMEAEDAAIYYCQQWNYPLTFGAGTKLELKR

-- reply
1. 16.3
2. 7.2

-- ask Consider the binder shown here: HCV 208B-1094 (antibody, V domains shown) VH: EVQLQQSGPELVKPGASVKISCKTSGYTFTEYAMHWMKQSHGKSLEWIGGINPTNGDTIYNQRFKDKAKLTVDRSSSTAYMELRSLTSDDSALFYCARRELDYFASWGQGTTLTVSS VL: DIVLTQSPASLIVSLGQTATISCRASQSLSTSRFSYVHWIQQKPGQPPKLLIKYASNLESGVPVRFSGSGSGTDFTLNIHPVEEEDTATYFCQHSWEFPFTFGSGTKLKIKR What is its recorded expected percent binding?
-- reply 24.4
